# assay system: recombinant guanylate cyclase reporter cell line (Rattus norvegicus, UniProt P20595)
# Construct: expressed in transfected cells
# Sequence (P20595 1-619): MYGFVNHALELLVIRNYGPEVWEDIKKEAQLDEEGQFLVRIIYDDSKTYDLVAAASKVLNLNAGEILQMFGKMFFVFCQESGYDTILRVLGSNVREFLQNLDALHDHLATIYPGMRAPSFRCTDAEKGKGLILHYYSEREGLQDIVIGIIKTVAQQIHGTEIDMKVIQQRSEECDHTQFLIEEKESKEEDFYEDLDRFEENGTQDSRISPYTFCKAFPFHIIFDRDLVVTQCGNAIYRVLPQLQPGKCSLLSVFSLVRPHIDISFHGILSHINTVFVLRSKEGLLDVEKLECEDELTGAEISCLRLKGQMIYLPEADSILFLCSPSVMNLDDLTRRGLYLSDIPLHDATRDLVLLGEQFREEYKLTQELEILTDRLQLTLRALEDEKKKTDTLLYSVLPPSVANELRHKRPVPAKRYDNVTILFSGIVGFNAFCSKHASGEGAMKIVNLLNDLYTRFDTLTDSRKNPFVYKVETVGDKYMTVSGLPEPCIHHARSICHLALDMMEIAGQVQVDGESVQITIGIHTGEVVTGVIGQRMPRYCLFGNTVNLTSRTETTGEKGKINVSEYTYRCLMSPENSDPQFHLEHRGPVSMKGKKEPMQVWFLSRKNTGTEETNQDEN
# Sequence (P19686 1-690 partner): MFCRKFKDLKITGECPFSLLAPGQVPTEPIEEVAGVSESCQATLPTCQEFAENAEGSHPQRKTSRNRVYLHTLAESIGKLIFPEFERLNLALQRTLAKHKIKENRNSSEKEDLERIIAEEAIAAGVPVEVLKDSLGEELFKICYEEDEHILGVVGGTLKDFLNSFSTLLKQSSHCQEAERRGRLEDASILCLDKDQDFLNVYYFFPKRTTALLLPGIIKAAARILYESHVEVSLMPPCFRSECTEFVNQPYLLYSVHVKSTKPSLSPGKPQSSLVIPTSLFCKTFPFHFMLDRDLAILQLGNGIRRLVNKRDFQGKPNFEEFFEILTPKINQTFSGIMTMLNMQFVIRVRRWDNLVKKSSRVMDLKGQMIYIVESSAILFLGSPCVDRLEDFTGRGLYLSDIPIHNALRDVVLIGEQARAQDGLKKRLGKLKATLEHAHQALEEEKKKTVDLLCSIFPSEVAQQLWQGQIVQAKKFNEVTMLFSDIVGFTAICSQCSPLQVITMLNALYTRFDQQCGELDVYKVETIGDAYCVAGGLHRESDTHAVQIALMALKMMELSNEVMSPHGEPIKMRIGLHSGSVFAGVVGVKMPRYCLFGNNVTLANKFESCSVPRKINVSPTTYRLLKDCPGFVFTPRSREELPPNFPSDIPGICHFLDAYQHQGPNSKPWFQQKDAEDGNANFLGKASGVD
# assay info: Effect on a recombinant guanylate cyclase reporter cell line
# Format: cell-based
# condition summary: minimum effective concentration
Reported log10(MEC) values for a set of compounds
recorded endpoint: log10(MEC) (log10 of the value in nM)

[
  {
    "compound": "O=C(O)c1cnn(C2CCCN(c3cc(Cl)ccc3-c3ccc(N4CCN(CC5(C(F)(F)F)CC5)CC4)cc3)C2)c1C(F)F (single isomer, unassigned; enantiomer 2) [Example 40]",
    "log10(MEC)": 0.00
  },
  {
    "compound": "O=C(O)c1cnn(C2CCCN(c3cc(Cl)ccc3-c3ccc(N4CCN(CC5CC5(F)F)CC4)cc3)C2)c1C(F)F (mixture of isomers) [Example 27]",
    "log10(MEC)": -0.52
  },
  {
    "compound": "O=C(O)c1cnn(C2CCCN(c3cc(Cl)ccc3-c3ccc(N4CCN(CC5CC5(F)F)CC4)cc3)C2)c1C(F)F (single isomer, unassigned; diastereomer 3) [Example 30]",
    "log10(MEC)": -0.52
  },
  {
    "compound": "O=C(O)c1cnn(C2CCCN(c3cc(Cl)ccc3-c3ccc(C4CN(CC(F)(F)F)C4)cc3)C2)c1C(F)F (single isomer, unassigned; enantiomer 2) [Example 58]",
    "log10(MEC)": 0.48
  },
  {
    "compound": "CC(C)(F)C(=O)N1CCN(c2ccc(-c3ccc(Cl)cc3N3CCCC(n4ncc(C(=O)O)c4C(F)F)C3)cc2)CC1 (single isomer, unassigned; enantiomer 2) [Example 49]",
    "log10(MEC)": 0.48
  },
  {
    "compound": "CN1CCN(c2ncc(-c3ccc(Cl)cc3N3CCCC(n4ncc(C(=O)O)c4C(F)F)C3)cn2)CC1 (single isomer, unassigned; enantiomer 2) [Example 71]",
    "log10(MEC)": 1.48
  },
  {
    "compound": "CCCN1CCN(c2ccc(-c3ccc(Cl)cc3N3CCCC(n4ncc(C(=O)O)c4C(F)F)C3)cn2)CC1 (single isomer, unassigned; enantiomer 2) [Example 61]",
    "log10(MEC)": 1.00
  },
  {
    "compound": "CC(C)CN1CCN(c2ccc(-c3ccc(Cl)cc3N3CC(n4ncc(C(=O)O)c4C(F)F)CC(F)(F)C3)cc2)CC1 (single isomer, unassigned; enantiomer 1) [Example 54]",
    "log10(MEC)": 0.48
  },
  {
    "compound": "O=C(O)c1cnn(C2CCCN(c3cc(Cl)ccc3-c3ccc(C4CCN(C(=O)C5CC5)CC4)cc3)C2)c1C(F)F (single isomer, unassigned; enantiomer 2) [Example 57]",
    "log10(MEC)": -0.52
  },
  {
    "compound": "CC(C)(C)CN1CCN(c2ccc(-c3ccc(Cl)cc3N3CCCC(n4ncc(C(=O)O)c4C(F)F)C3)cc2)CC1 (single isomer, unassigned; enantiomer 1) [Example 12]",
    "log10(MEC)": 1.00
  },
  {
    "compound": "O=C(O)c1cnn(C2CCCN(c3cc(Cl)ccc3-c3ccc(N4CCN(C5CC5)CC4)cc3)C2)c1C(F)F (single isomer, unassigned; enantiomer 2) [Example 9]",
    "log10(MEC)": 0.48
  },
  {
    "compound": "O=C(O)c1cnn(C2CCCN(c3cc(Cl)ccc3-c3ccc(N4CCCC4)cc3)C2)c1C(F)F (single isomer, unassigned; enantiomer 2) [Example 45]",
    "log10(MEC)": 0.48
  },
  {
    "compound": "O=C(O)c1cnn(C2CCCN(c3cc(Cl)ccc3-c3ccc(N4CCN(CCOC(F)(F)F)CC4)cc3)C2)c1C(F)F (single isomer, unassigned; enantiomer 2) [Example 26]",
    "log10(MEC)": 0.00
  },
  {
    "compound": "CC(C)CN1CCN(c2ncc(-c3ccc(Cl)cc3N3CCCC(n4ncc(C(=O)O)c4C(F)F)C3)cn2)CC1 (single isomer, unassigned; enantiomer 2) [Example 70]",
    "log10(MEC)": 0.48
  },
  {
    "compound": "CCN1CCN(c2ccc(-c3ccc(Cl)cc3N3CCCC(n4ncc(C(=O)O)c4C(F)F)C3)cn2)CC1 (single isomer, unassigned; enantiomer 2) [Example 60]",
    "log10(MEC)": 1.48
  },
  {
    "compound": "O=C(O)c1cnn(C2CCCN(c3cc(Cl)ccc3-c3ccc(N4CCN(C5COC5)CC4)cc3)C2)c1C(F)F (single isomer, unassigned; enantiomer 1) [Example 42]",
    "log10(MEC)": 1.48
  },
  {
    "compound": "CC(C)CC(=O)N1CCN(c2ccc(-c3ccc(Cl)cc3N3CCCC(n4ncc(C(=O)O)c4C(F)F)C3)cc2)CC1 (single isomer, unassigned; enantiomer 2) [Example 51]",
    "log10(MEC)": 0.48
  },
  {
    "compound": "O=C(O)c1cnn(C2CCCN(c3cc(Cl)ccc3-c3ccc(N4CCN(C(=O)[C@H]5C[C@H]5F)CC4)cc3)C2)c1C(F)F (single isomer, unassigned; stereoisomer 2) [Example 35]",
    "log10(MEC)": 0.30
  },
  {
    "compound": "O=C(O)c1cnn(C2CCCN(c3cc(Cl)ccc3-c3ccc(N4CCN(CC5CC5(F)F)CC4)cc3)C2)c1C(F)F (single isomer, unassigned; diastereomer 2) [Example 29]",
    "log10(MEC)": -0.52
  }
]
